- TESTED SYSTEM: recombinant human His-tagged MDM2 protein (residues 1-118) (Homo sapiens (Human), UniProt Q00987)
- Sequence (Q00987 1-118): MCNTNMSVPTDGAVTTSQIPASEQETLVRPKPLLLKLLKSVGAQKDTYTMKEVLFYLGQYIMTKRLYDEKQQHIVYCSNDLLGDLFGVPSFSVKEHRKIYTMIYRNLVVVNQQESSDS
- ASSAY TEXT: Fluorescence-polarization MDM2 binding assay;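 also: fluorescence polarization read after three hours of incubation in potassium phosphate buffer containing bovine gamma globulin and Triton X-100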
- REPORTED CONDITIONS: Table 19B; read-out: Binding affinities to MDM2 protein as determined by FP based assay IC50
pIC50: −log10 of the molar value.
Recorded measurements of pIC50, one per entry

COMPOUND	ASSAY ENDPOINT	OBSERVED MEASUREMENT
O=C(NCC[C@H](O)CO)[C@@H]1N[C@H](CCCc2cccs2)[C@]2(C(=O)Nc3cc(Cl)c(F)cc32)[C@H]1c1cccc(Cl)c1	pIC50	< 6.00
CC(C)CC(C)(C)C[C@H]1N[C@@H](C(=O)NCC[C@H](O)CO)[C@H](c2cccc(Cl)c2F)[C@@]12C(=O)Nc1cc(Cl)c(F)cc12	pIC50	> 6.00
CC(C)(C)C[C@H]1N[C@@H](C(=O)N2CCN(C(=O)C3CC3)CC2)[C@H](c2cccc(Cl)c2)[C@@]12C(=O)N(C(=O)C1CC1)c1cc(Cl)c(F)cc12 [MI-743B]	pIC50	< 4.00
CCC(C)(C)C[C@H]1N(C)[C@@H](C(=O)NCC[C@H](O)CO)[C@H](c2cccc(Cl)c2F)[C@@]12C(=O)Nc1cc(F)c(F)cc12	pIC50	> 5.30
CC(C)CC(C)(C)C[C@H]1N(C)[C@@H](C(=O)NCC[C@H](O)CO)[C@H](c2cccc(Cl)c2F)[C@@]12C(=O)Nc1cc(Cl)c(F)cc12	pIC50	< 6.00

response.value for CN1[C@@H](C(=O)NCC[C@H](O)CO)[C@H](c2cccc(Cl)c2)[C@@]2(C(=O)Nc3cc(Cl)c(F)cc32)[C@H]1CCCc1ccccc1 (field: pIC50) = < 5.00

Form: compound = CN1[C@@H](C(=O)NCC[C@H](O)CO)[C@H](c2cccc(Cl)c2)[C@@]2(C(=O)Nc3cc(Cl)c(F)cc32)[C@H]1CCc1cccs1 ; pIC50 = < 5.00

Data point: CC(C)CC(C)(C)C[C@H]1N(C)[C@@H](C(=O)NCC[C@H](O)CO)[C@H](c2cccc(Cl)c2)[C@@]12C(=O)Nc1cc(F)c(F)cc12 ; pIC50 = < 6.00

// pIC50 value for CC(C)(C)C[C@H]1N[C@@H](C(=O)NCCN2CCOCC2)[C@H](c2cccc(Cl)c2F)[C@@]12C(=O)Nc1cc(F)c(F)cc12 : > 5.52

pIC50 for CC(C)CC(C)(C)C[C@H]1N[C@@H](C(=O)NCC[C@H](O)CO)[C@H](c2cccc(Cl)c2)[C@@]12C(=O)Nc1cc(F)c(F)cc12 is > 6.00

// pIC50 value for CC(C)CC(C)(C)C[C@H]1N[C@@H](C(=O)NCC[C@H](O)CO)[C@H](c2cccc(Cl)c2)[C@@]12C(=O)Nc1cc(Cl)c(F)cc12 : > 6.00

Given item O=C(NCC[C@H](O)CO)[C@@H]1N[C@H](CCCc2ccccc2)[C@]2(C(=O)Nc3cc(Cl)c(F)cc32)[C@H]1c1cccc(Cl)c1 , the value recorded as its pIC50 is < 6.00

---

- ASSAY TEXT: In vitro microsomal stability, rat
- Type: in vitro ADME
- REPORTED CONDITIONS: Table 17, 15 min
Strictly below 50% in % of compound remaining when incubated in rat liver microsomes: class 1. Otherwise: class 0.

Would you please look over these solved cases?
COMPOUND	ASSIGNED LABEL
CC(C)(C)C[C@H]1N[C@@H](C(=O)NCCCN2CCCC2)[C@H](c2cccc(Cl)c2F)[C@@]12C(=O)Nc1cc(Cl)c(F)cc12	class 0
CC(C)(C)C[C@H]1N[C@@H](C(=O)NCCCN2CCCC2)[C@H](c2cccc(Cl)c2F)[C@@]12C(=O)Nc1cc(Cl)ccc12	class 0
CC(C)(C)C[C@H]1N[C@@H](C(=O)NCCCN2CCCCC2)[C@H](c2cccc(Cl)c2F)[C@@]12C(=O)Nc1cc(Cl)ccc12	class 0
CC(C)(C)C[C@H]1N[C@@H](C(=O)NCCN2CCCC2)[C@H](c2cccc(Cl)c2F)[C@@]12C(=O)Nc1cc(Cl)c(F)cc12	class 0

input: Given CC(C)(C)C[C@H]1N[C@@H](C(N)=O)[C@H](c2cccc(Cl)c2)[C@@]12C(=O)Nc1cc(Cl)c(F)cc12 , is recorded % of compound remaining when incubated in rat liver microsomes strictly lower than 50%?
output: class 0

input: Would you kindly verify if % of compound remaining when incubated in rat liver microsomes of CN1CCN(CCCNC(=O)[C@@H]2N[C@H](CC(C)(C)C)[C@]3(C(=O)Nc4cc(Cl)ccc43)[C@H]2c2cccc(Cl)c2F)CC1 is strictly less than 50%?
output: class 0

input: Problem: For the compound CC(C)(C)C[C@H]1N[C@@H](C(=O)NCCCN2CCN(C3CC3)CC2)[C@H](c2cccc(Cl)c2F)[C@@]12C(=O)Nc1cc(Cl)ccc12 [MI-519-48] , is % of compound remaining when incubated in rat liver microsomes under 50%?
output: class 1

input: Given CC(C)N1CCN(CCCNC(=O)[C@@H]2N[C@H](CC(C)(C)C)[C@]3(C(=O)Nc4cc(Cl)ccc43)[C@H]2c2cccc(Cl)c2F)CC1 , is recorded % of compound remaining when incubated in rat liver microsomes strictly lower than 50%?
output: class 1

input: Record CC(C)(C)C[C@H]1N[C@@H](C(=O)NCCCN2CCN(C3CC3)CC2)[C@H](c2cccc(Cl)c2F)[C@@]12C(=O)Nc1cc(Cl)ccc12 [MI-519-47] : is its % of compound remaining when incubated in rat liver microsomes strictly below 50%?
output: class 1

input: Field: below-cutoff. Rule: recorded % of compound remaining when incubated in rat liver microsomes strictly less than 50%. Subject: CN1CCN(CCCNC(=O)[C@@H]2N[C@H](CC(C)(C)C)[C@]3(C(=O)Nc4cc(Cl)c(F)cc43)[C@H]2c2cccc(Cl)c2)CC1
output: class 1

input: Does CNC(=O)[C@@H]1N[C@H](CC(C)(C)C)[C@]2(C(=O)Nc3cc(Cl)c(F)cc32)[C@H]1c1cccc(Cl)c1 have % of compound remaining when incubated in rat liver microsomes strictly under 50%?
output: class 0

input: # TODO verify % of compound remaining when incubated in rat liver microsomes < 50% strictly for this compound: CN1CCN(CCNC(=O)[C@@H]2N[C@H](CC(C)(C)C)[C@]3(C(=O)Nc4cc(Cl)c(F)cc43)[C@H]2c2cccc(Cl)c2)CC1
output: class 1
